Tested on: HCT116
assay: Cell-based proliferation assay (SRB), HCT116
experimental-conditions: Homo sapiens, HCT-116, Table 3
measured-endpoint: GI50 (µM)

>>> df
                                   molecule  unit  measured
0  CCN(CC)CCSc1ccc(/C=C/C(=O)NO)cc1[N+](=O)[O-]    µM      2.02

a = CCCCCNc1cc(/C=C/C(=O)NO)ccc1SCCN(CC)CC
b = CCN(CC)CCSc1ccc(/C=C/C(=O)NO)cc1NC(=O)C(Cl)Cl
c = CCCCc1nc2cc(/C=C/C(=O)NO)ccc2n1CCN(CC)CC [SB939, reference compound]
d = CCN(CC)CCSc1ccc(/C=C/C(=O)NO)cc1NCCCc1ccccc1
Query block: Sort entries by GI50 from minimum to maximum value. Kindly provide the labels arranged according to the requested ordering.
Result block: d, c, b, a
(d: 0.78 µM, c: 1.35 µM, b: 2.56 µM, a: 3.99 µM)

P = CCCCCNC(=O)Nc1cc(/C=C/C(=O)NO)ccc1SCCN(CC)CC
Q = CCN(CC)CCSc1ccc(/C=C/C(=O)NO)cc1NCc1ccccc1
Query block: Quick one: lower GI50, P or Q ? Write the label of whichever entry you select.
Result block: Q
(Q: 0.78 µM, P: 18.2 µM)

P = CCN(CC)CCSc1ccc(/C=C/C(=O)NO)cc1NC
Q = CCCNc1cc(/C=C/C(=O)NO)ccc1SCCN(CC)CC
Query block: I need your help: which of the pair P , Q has higher GI50? Write down the label of the entry you select.
Result block: P

---

Tested on: SKOV-3
assay: Cell-based proliferation assay (SRB), SKOV-3
experimental-conditions: Homo sapiens, SK-OV-3, Table 4
From the text: Cell-Based Proliferation Assay for Determination of GI50 Values A rapid multiwell plate assay using Sulforhodamine B (SRB) protein stain was adopted to evaluate the growth inhibitory effects of the compounds of the present invention. The screening panel of cancer cell lines includes Colo205 and HCT116 colon cancer cells, MDA-MB231 and MDA-MB435 chest cancer cells, A549 lung cancer cells, and Chinese hamster ovary cell line CHO, which were obtained from ATCC. […]
measured-endpoint: GI50 (µM)

Sample answers from the record:
>>> df
                                   compound  target_system  unit  measured
0      CCCNc1cc(/C=C/C(=O)NO)ccc1SCCN(CC)CC         SKOV-3    µM      2.58
1  CCN(CC)CCSc1ccc(/C=C/C(=O)NO)cc1NCCCc1ccccc1         SKOV-3    µM      4.57
2    CCCCCNc1cc(/C=C/C(=O)NO)ccc1SCCN(CC)CC         SKOV-3    µM      5.46

P = CCCCc1nc2cc(/C=C/C(=O)NO)ccc2n1CCN(CC)CC [SB939, reference compound]
Q = CCN(CC)CCSc1ccc(/C=C/C(=O)NO)cc1NC(C)=O
Query block: Kindly identify the item with the lower GI50 figure among these two: P and Q Choose, then provide that item's label.
Result block: Q

---

target-system: HDAC6 (Homo sapiens (Human), UniProt Q9UBN7)
Sequence (Q9UBN7 whole entry, species assumed): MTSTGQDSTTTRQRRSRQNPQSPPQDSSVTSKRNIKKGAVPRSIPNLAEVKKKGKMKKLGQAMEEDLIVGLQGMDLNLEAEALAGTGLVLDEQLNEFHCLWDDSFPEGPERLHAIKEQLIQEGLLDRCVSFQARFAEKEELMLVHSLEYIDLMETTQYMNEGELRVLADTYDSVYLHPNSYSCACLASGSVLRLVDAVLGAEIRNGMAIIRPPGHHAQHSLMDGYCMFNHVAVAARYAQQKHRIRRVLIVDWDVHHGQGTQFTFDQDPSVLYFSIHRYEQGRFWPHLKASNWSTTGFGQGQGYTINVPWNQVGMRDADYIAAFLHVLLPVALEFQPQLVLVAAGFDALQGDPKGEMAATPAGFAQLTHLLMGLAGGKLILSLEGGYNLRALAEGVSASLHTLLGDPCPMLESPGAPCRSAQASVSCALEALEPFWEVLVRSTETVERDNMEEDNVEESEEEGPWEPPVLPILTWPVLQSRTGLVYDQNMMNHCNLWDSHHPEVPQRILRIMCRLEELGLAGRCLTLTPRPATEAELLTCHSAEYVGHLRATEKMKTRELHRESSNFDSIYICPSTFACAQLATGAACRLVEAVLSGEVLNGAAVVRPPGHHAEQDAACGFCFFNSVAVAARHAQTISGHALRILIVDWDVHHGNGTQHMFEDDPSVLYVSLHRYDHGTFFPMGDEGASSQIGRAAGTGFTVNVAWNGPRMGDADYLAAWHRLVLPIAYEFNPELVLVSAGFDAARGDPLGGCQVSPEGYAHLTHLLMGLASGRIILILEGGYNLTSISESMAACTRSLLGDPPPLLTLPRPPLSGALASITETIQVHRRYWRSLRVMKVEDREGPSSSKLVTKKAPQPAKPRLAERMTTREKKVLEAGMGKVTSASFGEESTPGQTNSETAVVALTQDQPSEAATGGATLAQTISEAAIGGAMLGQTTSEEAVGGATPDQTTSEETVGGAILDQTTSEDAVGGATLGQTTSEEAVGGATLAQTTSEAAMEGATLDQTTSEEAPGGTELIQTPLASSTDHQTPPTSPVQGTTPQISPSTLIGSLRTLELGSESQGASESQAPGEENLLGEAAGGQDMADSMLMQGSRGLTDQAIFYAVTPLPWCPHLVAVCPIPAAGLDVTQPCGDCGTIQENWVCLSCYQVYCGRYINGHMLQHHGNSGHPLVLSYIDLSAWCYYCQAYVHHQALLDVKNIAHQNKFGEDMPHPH
assay: In vitro HDACi assay, HDAC6
Assay type: biochemical
measured-endpoint: IC50 (nM)
Answer format: numeric, nM implied, no suffix.

Query block: # return IC50 for CCCCc1nc2cc(/C=C/C(=O)NO)ccc2n1CCN(CC)CC [SB939, reference compound] , test system: HDAC6 (Homo sapiens (Human), UniProt Q9UBN7)
Result block: 488

Ref: patent US8921424B2
